All values here come from paper PMC8001353.

Tested on: MG-63 (osteosarcoma)
test details: MTT cytotoxicity assay in MG-63
Assay type: cell-based
assay setup: Homo sapiens, 48 h incubation, mean ± SD
pIC50: −log10 of the molar value.
endpoint label: pIC50

• O=C1CC[C@]2(c3ccc(-c4ccc(C(F)(F)F)cc4)cc3)OC[C@@H](Cc3c[nH]c4ccccc34)N12 = 4.57

###

Test system: human gastric adenocarcinoma (AGS) cell line
test details: MTT reduction assay, cell viability / cytotoxicity in AGS cell line
Type: cell-based
assay setup: AGS cell line, cell viability, MTT, 48 h incubation, 100 µM, mean ± SD
Just a reminder that ties go to N: only % CV at 100 µM strictly below 30% counts as Y.

- O=C1CC[C@@]2(c3ccc(Br)cc3)OC[C@H](Cc3c[nH]c4ccccc34)N12 [Compound 8d]: Y
- O=C1CC[C@@]2(c3ccccc3)OC[C@H](Cc3c[nH]c4ccccc34)N12 [Compound 8a]: N
- O=C1CC[C@@]2(c3ccc(F)cc3)OC[C@H](Cc3c[nH]c4ccccc34)N12 [Compound 8b]: Y
- O=C1CC[C@]2(c3ccccc3)OC[C@@H](Cc3c[nH]c4ccccc34)N12 [Compound 7a]: N
- CS(=O)(=O)c1ccc([C@@]23CCC(=O)N2[C@@H](Cc2c[nH]c4ccccc24)CO3)cc1 [Compound 8g]: N
- O=C1CC[C@]2(c3ccc(F)cc3)OC[C@@H](Cc3c[nH]c4ccccc34)N12 [Compound 7b]: N
- Cc1ccc([C@@]23CCC(=O)N2[C@@H](Cc2c[nH]c4ccccc24)CO3)cc1 [Compound 8e]: N
- O=C1CC[C@]2(c3ccc(Cl)cc3)OC[C@@H](Cc3c[nH]c4ccccc34)N12 [Compound 7c]: Y
- O=C1CC[C@@]2(c3ccc(Cl)cc3)OC[C@H](Cc3c[nH]c4ccccc34)N12 [Compound 8c]: Y
- O=C1CC[C@]2(c3ccc(Br)cc3)OC[C@@H](Cc3c[nH]c4ccccc34)N12 [Compound 7d]: Y
- Cc1ccc([C@]23CCC(=O)N2[C@H](Cc2c[nH]c4ccccc24)CO3)cc1 [Compound 7e]: Y
- CS(=O)(=O)c1ccc([C@]23CCC(=O)N2[C@H](Cc2c[nH]c4ccccc24)CO3)cc1 [Compound 7g]: N
- COc1ccc([C@]23CCC(=O)N2[C@H](Cc2c[nH]c4ccccc24)CO3)cc1 [Compound 7f]: Y

###

System: A-549 (lung carcinoma)
test details: MTT cytotoxicity assay in A-549
Type: cell-based
assay setup: Homo sapiens, A549, 48 h incubation, mean ± SD
Listed here: items and their measured IC50.
endpoint label: IC50

* O=C1CC[C@]2(c3ccc(-c4ccc(C(F)(F)F)cc4)cc3)OC[C@@H](Cc3c[nH]c4ccccc34)N12 | > 60 µM
* O=C1CC[C@]2(c3ccc(-c4ccc(Cl)c(Cl)c4)cc3)OC[C@@H](Cc3c[nH]c4ccccc34)N12 | > 60 µM
